# Test system: HeLa Kyoto
# experiment.summary: melting temperature (median over replicates), in situ; higher = more thermally stable
# run.parameters: cell cycle stage: G1/S
result.type: melting temperature (°C)

ordered.residues	target	experimental.result
MTDQAFVTLTTNDAYAKGALVLGSSLKQHRTTRRLVVLATPQVSDSMRKVLETVFDEVIMVDVLDSGDSAHLTLMKRPELGVTLTKLHCWSLTQYSKCVFMDADTLVLANIDDLFDREELSAAPDPGWPDCFNSGVFVYQPSVETYNQLLHLASEQGSFDGGDQGILNTFFSSWATTDIRKHLPFIYNLSSISIYSYLPAFKVFGASAKVVHFLGRVKPWNYTYDPKTKSVKSEAHDPNMTHPEFLILWWNIFTTNVLPLLQQFGLVKDTCSYVNVLSDLVYTLAFSCGFCRKEDVSGAISHLSLGEIPAMAQPFVSSEERKERWEQGQADYMGADSFDNIKRKLDTYLQ [GYG1]	HeLa Kyoto	56.3
MWSRLVWLGLRAPLGGRQGFTSKADPQGSGRITAAVIEHLERLALVDFGSREAVARLEKAIAFADRLRAVDTDGVEPMESVLEDRCLYLRSDNVVEGNCADELLQNSHRVVEEYFVAPPGNISLPKLDEQEPFPHS [GATC]	HeLa Kyoto	51.7
MVSWMICRLVVLVFGMLCPAYASYKAVKTKNIREYVRWMMYWIVFALFMAAEIVTDIFISWFPFYYEIKMAFVLWLLSPYTKGASLLYRKFVHPSLSRHEKEIDAYIVQAKERSYETVLSFGKRGLNIAASAAVQAATKSQGALAGRLRSFSMQDLRSISDAPAPAYHDPLYLEDQVSHRRPPIGYRAGGLQDSDTEDECWSDTEAVPRAPARPREKPLIRSQSLRVVKRKPPVREGTSRSLKVRTRKKTVPSDVDS [REEP4]	HeLa Kyoto	53.4

----------
# Test system: HeLa Kyoto;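 further: HeLa Kyoto cells synchronized by double thymidine or nocodazole block, proteins quantified by TMT10plex mass spectrometry, three independent biological replicates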
# experiment.summary: melting temperature (median over replicates), in situ; higher = more thermally stable
# run.parameters: cell cycle stage: mitosis

substance	melting temperature / °C
MAKVSELYDVTWEEMRDKMRKWREENSRNSEQIVEVGEELINEYASKLGDDIWIIYEQVMIAALDYGRDDLALFCLQELRRQFPGSHRVKRLTGMRFEAMERYDDAIQLYDRILQEDPTNTAARKRKIAIRKAQGKNVEAIRELNEYLEQFVGDQEAWHELAELYINEHDYAKAAFCLEELMMTNPHNHLYCQQYAEVKYTQGGLENLELSRKYFAQALKLNNRNMRALFGLYMSASHIASNPKASAKTKKDNMKYASWAASQINRAYQFAGRSKKETKYSLKAVEDMLETLQITQS [EMC2]	53.9
MFSLPLNCSPDHIRRGSCWGRPQDLKIAAPAWNSKCHPGAGAAMARQHARTLWYDRPRYVFMEFCVEDSTDVHVLIEDHRIVFSCKNADGVELYNEIEFYAKVNSKPVWLSVDFDNWRDWEGDEEMELAHVEHYAELLKKVSTKRPPPAMDDLDDDSDSADDATSN [PTGES3L]	49.9
MVSWMISRAVVLVFGMLYPAYYSYKAVKTKNVKEYVRWMMYWIVFALYTVIETVADQTVAWFPLYYELKIAFVIWLLSPYTKGASLIYRKFLHPLLSSKEREIDDYIVQAKERGYETMVNFGRQGLNLAATAAVTAAVKSQGAITERLRSFSMHDLTTIQGDEPVGQRPYQPLPEAKKKSKPAPSESAGYGIPLKDGDEKTDEEAEGPYSDNEMLTHKGLRRSQSMKSVKTTKGRKEVRYGSLKYKVKKRPQVYF [REEP3]	54.9
MSGSFELSVQDLNDLLSDGSGCYSLPSQPCNEVTPRIYVGNASVAQDIPKLQKLGITHVLNAAEGRSFMHVNTNANFYKDSGITYLGIKANDTQEFNLSAYFERAADFIDQALAQKNGRVLVHCREGYSRSPTLVIAYLMMRQKMDVKSALSIVRQNREIGPNDGFLAQLCQLNDRLAKEGKLKP [DUSP3]	51
MAAAGGGGGGAAAAGRAYSFKVVLLGEGCVGKTSLVLRYCENKFNDKHITTLQASFLTKKLNIGGKRVNLAIWDTAGQERFHALGPIYYRDSNGAILVYDITDEDSFQKVKNWVKELRKMLGNEICLCIVGNKIDLEKERHVSIQEAESYAESVGAKHYHTSAKQNKGIEELFLDLCKRMIETAQVDERAKGNGSSQPGTARRGVQIIDDEPQAQTSGGGCCSSG [RAB21]	60.5
MGWSQDLFRALWRSLSREVKEHVGTDQFGNKYYYIPQYKNWRGQTIREKRIVEAANKKEVDYEAGDIPTEWEAWIRRTRKTPPTMEEILKNEKHREEIKIKSQDFYEKEKLLSKETSEELLPPPVQTQIKGHASAPYFGKEEPSVAPSSTGKTFQPGSWMPRDGKSHNQ [NDUFAF2]	52.2
MSLLLYYALPALGSYAMLSIFFLRRPHLLHTPRAPTFRIRLGAHRGGSGELLENTMEAMENSMAQRSDLLELDCQLTRDRVVVVSHDENLCRQSGLNRDVGSLDFEDLPLYKEKLEVYFSPGHFAHGSDRRMVRLEDLFQRFPRTPMSVEIKGKNEELIREIAGLVRRYDRNEITIWASEKSSVMKKCKAANPEMPLSFTISRGFWVLLSYYLGLLPFIPIPEKFFFCFLPNIINRTYFPFSCSCLNQLLAVVSKWLIMRKSLIRHLEERGVQVVFWCLNEESDFEAAFSVGATGVITDYPTALRHYLDNHGPAARTS [GDPD3]	55.1
MSKRNQVSYVRPAEPAFLARFKERVGYREGPTVETKRIQPQPPDEDGDHSDKEDEQPQVVVLKKGDLSVEEVMKIKAEIKAAKADEEPTPADGRIIYRKPVKHPSDEKYSGLTASSKKKKPNEDEVNQDSVKKNSQKQIKNSSLLSFDNEDENE [KIAA1143]	52
MPAVLGFEGSANKIGVGVVRDGKVLANPRRTYVTPPGTGFLPGDTARHHRAVILDLLQEALTESGLTSQDIDCIAYTKGPGMGAPLVSVAVVARTVAQLWNKPLVGVNHCIGHIEMGRLITGATSPTVLYVSGGNTQVIAYSEHRYRIFGETIDIAVGNCLDRFARVLKISNDPSPGYNIEQMAKRGKKLVELPYTVKGMDVSFSGILSFIEDVAHRMLATGECTPEDLCFSLQETVFAMLVEITERAMAHCGSQEALIVGGVGCNVRLQEMMATMCQERGARLFATDERFCIDNGAMIAQAGWEMFRAGHRTPLSDSGVTQRYRTDEVEVTWRD [OSGEP]	55.4
MFKKFDEKENVSNCIQLKTSVIKGIKNQLIEQFPGIEPWLNQIMPKKDPVKIVRCHEHIEILTVNGELLFFRQREGPFYPTLRLLHKYPFILPHQQVDKGAIKFVLSGANIMCPGLTSPGAKLYPAAVDTIVAIMAEGKQHALCVGVMKMSAEDIEKVNKGIGIENIHYLNDGLWHMKTYK [MCTS1]	54.5
HNRNPAB	54.4
MAAVVAKREGPPFISEAAVRGNAAVLDYCRTSVSALSGATAGILGLTGLYGFIFYLLASVLLSLLLILKAGRRWNKYFKSRRPLFTGGLIGGLFTYVLFWTFLYGMVHVY [EMC6]	54.1
MDAAEVEFLAEKELVTIIPNFSLDKIYLIGGDLGPFNPGLPVEVPLWLAINLKQRQKCRLLPPEWMDVEKLEKMRDHERKEETFTPMPSPYYMELTKLLLNHASDNIPKADEIRTLVKDMWDTRIAKLRVSADSFVRQQEAHAKLDNLTLMEINTSGTFLTQALNHMYKLRTNLQPLESTQSQDF [GINS2]	52.4

Values compiled from the supplement of paper PMC5998384.
